Assignment: determine reported pIC50 for the given molecules.
- Subject Of Test: PI3-kinase p110-delta/p85-alpha (Homo sapiens, UniProt O00329)
- Sequence (P27986 whole entry): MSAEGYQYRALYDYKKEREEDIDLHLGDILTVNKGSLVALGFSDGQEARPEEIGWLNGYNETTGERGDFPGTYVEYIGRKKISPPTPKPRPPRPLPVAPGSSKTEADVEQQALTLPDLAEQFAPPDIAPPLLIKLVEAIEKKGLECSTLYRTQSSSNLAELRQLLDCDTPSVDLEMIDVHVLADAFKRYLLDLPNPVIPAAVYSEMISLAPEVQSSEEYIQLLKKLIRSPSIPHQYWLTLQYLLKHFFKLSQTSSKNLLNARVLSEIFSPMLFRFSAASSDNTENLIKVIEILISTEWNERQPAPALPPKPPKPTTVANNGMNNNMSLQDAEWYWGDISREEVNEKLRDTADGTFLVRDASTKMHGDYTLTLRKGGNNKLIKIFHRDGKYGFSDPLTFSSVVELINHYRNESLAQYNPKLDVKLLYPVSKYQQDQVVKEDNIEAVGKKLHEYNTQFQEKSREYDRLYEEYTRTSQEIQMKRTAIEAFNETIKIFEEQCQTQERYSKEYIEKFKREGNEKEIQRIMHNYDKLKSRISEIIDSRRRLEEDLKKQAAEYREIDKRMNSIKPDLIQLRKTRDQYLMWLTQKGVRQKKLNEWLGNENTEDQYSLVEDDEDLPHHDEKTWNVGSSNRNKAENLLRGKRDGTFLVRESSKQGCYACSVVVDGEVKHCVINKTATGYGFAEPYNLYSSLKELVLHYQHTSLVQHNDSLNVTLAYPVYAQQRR
- Sequence (O00329 whole entry): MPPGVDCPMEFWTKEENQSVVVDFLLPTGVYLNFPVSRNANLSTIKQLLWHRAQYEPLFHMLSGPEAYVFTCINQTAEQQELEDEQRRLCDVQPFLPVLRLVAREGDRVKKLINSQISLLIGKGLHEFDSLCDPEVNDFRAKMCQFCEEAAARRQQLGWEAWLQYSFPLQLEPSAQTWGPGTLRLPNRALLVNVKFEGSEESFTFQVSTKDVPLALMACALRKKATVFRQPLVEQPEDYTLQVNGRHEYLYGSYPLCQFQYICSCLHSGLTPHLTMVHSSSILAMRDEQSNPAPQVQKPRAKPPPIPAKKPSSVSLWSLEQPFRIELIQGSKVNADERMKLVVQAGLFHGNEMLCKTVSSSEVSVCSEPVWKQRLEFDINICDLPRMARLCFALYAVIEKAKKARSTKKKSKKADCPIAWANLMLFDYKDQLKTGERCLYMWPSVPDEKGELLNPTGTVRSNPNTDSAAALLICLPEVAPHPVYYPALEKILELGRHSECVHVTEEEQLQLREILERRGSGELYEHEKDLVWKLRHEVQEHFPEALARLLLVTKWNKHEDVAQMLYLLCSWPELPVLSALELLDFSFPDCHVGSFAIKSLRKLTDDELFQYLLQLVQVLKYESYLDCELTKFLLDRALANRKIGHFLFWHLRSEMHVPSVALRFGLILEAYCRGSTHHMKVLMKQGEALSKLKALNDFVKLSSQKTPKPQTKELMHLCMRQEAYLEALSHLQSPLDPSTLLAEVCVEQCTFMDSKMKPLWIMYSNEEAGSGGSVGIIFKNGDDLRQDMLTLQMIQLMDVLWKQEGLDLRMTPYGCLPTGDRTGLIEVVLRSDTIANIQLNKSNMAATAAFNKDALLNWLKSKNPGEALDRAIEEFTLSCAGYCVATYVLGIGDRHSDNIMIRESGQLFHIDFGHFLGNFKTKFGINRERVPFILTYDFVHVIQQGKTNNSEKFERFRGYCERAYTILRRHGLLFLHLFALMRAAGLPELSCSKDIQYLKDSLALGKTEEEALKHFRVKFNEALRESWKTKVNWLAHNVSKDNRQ
- Assay Info: Inhibition of N-terminal His6-tagged recombinant full length human p110delta/untagged recombinant full length human p85alpha expressed in baculovirus infected Sf21 insect cells using PIP2 as substrate preincubated for 15 mins followed by substrate addition and measured after 1 hr by HTRF assay
Quick note: pIC50 means taking -log10 of the concentration in moles per liter.

Documented pIC50 of `CCn1c(-c2cnc(C)nc2)nc2c(N[C@H]3CCN(C(=O)C4CCC4)C3)ncnc21` : 9.40

Documented pIC50 of `CCn1c(-c2cnc(C)nc2)nc2c(N[C@H]3CCN(C(=O)[C@H]4C[C@@H](OC)C4)C3)ncnc21` : 9.10

Documented pIC50 of `CCCn1c(-c2cnn(CC)c2C)nc2c(N[C@H]3CCN(C(=O)CC)C3)ncnc21` : 7.68

Documented pIC50 of `CCC(=O)N1CC[C@H](Nc2ncnc3c2nc(-c2cnc(C)nc2)n3C)C1` : 8.38

Documented pIC50 of `CCC(=O)N1CC[C@H](Nc2ncnc3c2nc(-c2ccc(C)nc2)n3C)C1` : 8.30

Documented pIC50 of `CCn1c(-c2cnc(C)nc2)nc2c(O[C@H]3CCN(C(=O)C4CCOCC4)C3)ncnc21` : 7.89

Documented pIC50 of CCn1c(-c2cnc(C)nc2)nc2c(O[C@H]3CCN(C(=O)C4CCOC4)C3)ncnc21 (some centres not stated) : 8.22

###

- Assay Info: Trough plasma concentration Brown Norway rat at 10 mg/kg, po
- Type: ADME, organism-based
- Assay Setup: in vivo, read-out: Cmin
Parameter Measured: concentration (nM)
// note: answer is a bare numeric in nM

Documented concentration of `CCn1c(-c2cnc(C)nc2)nc2c(N[C@H]3CCN(C(=O)C4CC4)C3)ncnc21` : 14

###

- Subject Of Test: PI3-kinase p110-delta/p85-alpha (Homo sapiens, UniProt O00329)
- Assay Info: Inhibition of N-terminal His6-tagged recombinant full length human p110delta/untagged recombinant full length human p85alpha expressed in baculovirus infected Sf21 insect cells using PIP2 as substrate preincubated for 15 mins followed by substrate addition and measured after 1 hr by HTRF assay
pIC50: −log10 of the molar value.
Would you please tag the item condition met when its pIC50 is 8 or above, and condition not met when it is below?

Query string: hey, is pIC50 for this one >= 8? `CCn1c(-c2cnc(C)nc2)nc2c(O[C@H]3CCN(C(=O)[C@H]4C[C@@H](OC)C4)C3)ncnc21`
Result string: condition met

Query string: hey, is pIC50 for this one >= 8? `CCn1c(-c2cnc(C)nc2)nc2c(O[C@H]3CCN(C(=O)C4CC(F)(F)C4)C3)ncnc21`
Result string: condition met

Query string: hey, is pIC50 for this one >= 8? `CCn1c(-c2cnc(C)nc2)nc2c(N[C@H]3CCN(C(=O)C4CC4)C3)ncnc21`
Result string: condition met

Query string: hey, is pIC50 for this one >= 8? `CCC(=O)N1CC[C@H](Nc2ncnc3c2nc(-c2cnn(CC)c2C)n3C2CC2)C1`
Result string: condition not met

Query string: hey, is pIC50 for this one >= 8? `CCC(=O)N1CC[C@H](Nc2ncnc3c2nc(-c2ccn(CC)c2C)n3C)C1`
Result string: condition not met

Query string: hey, is pIC50 for this one >= 8? `CCn1c(-c2cnc(C)nc2)nc2c(N[C@H]3CCN(C(=O)C4CCOCC4)C3)ncnc21`
Result string: condition met

Query string: hey, is pIC50 for this one >= 8? `CCn1c(-c2cnc(C)nc2)nc2c(O[C@H]3CCN(C(=O)N4CC(OC)C4)C3)ncnc21`
Result string: condition met
